- targetEntity: human ether-à-go-go-related gene (hERG) potassium channel (human)
- experimentalProtocol: primary screen, population patch clamp on CHO cells stably expressing hERG; higher = less effect of the substance
Screen size: about 310,000 compounds; about 14,000 (4.5%) showed an effect of 50% or more. Effects have a minus sign here. The sample holds strong results, similar compounds and a random draw of the others, so the mix is not that of the screen.
endpointLabel: hERG current change (%, negative = inhibition) at 10uM (%)
Write the answer as a number in %, unit excluded.

Given the compound "CC(C)CN(CCCNC(=O)CN1C(=O)COc2ccc(S(=O)(=O)N3CCCC3)cc21)CC(C)C" , what is its reported hERG current change (%, negative = inhibition) at 10uM?
-5.33

Looking for the measured hERG current change (%, negative = inhibition) at 10uM of CCOc1ccc(N2C(=O)CC(Sc3nc(-c4cccs4)cc(C(F)(F)F)c3C#N)C2=O)cc1 (centres unmarked) , can you help?
10.2

If you can, please state the reported hERG current change (%, negative = inhibition) at 10uM value of "Nn1c(SCC(=O)Nc2ccc3c(c2)OCO3)nnc1C1CC1" .
7.91

hERG current change (%, negative = inhibition) at 10uM for "CC1CCN(S(=O)(=O)c2ccc3c(c2)N(CC(=O)NCCCN(Cc2ccccc2)C(C)C)C(=O)CO3)CC1" ?
-62.5

Tell me the measured hERG current change (%, negative = inhibition) at 10uM of "O=C(Cn1c(CN2CCCCC2)nc2ccccc2c1=O)NCc1ccco1" , please.
-15.4

====

- targetEntity: human ether-à-go-go-related gene (hERG) potassium channel (human)
- experimentalProtocol: primary screen, population patch clamp on CHO cells stably expressing hERG; higher = less effect of the substance
Screen size: about 310,000 compounds; about 14,000 (4.5%) showed an effect of 50% or more. The effect is printed as a negative number. Shown is part of a subset that was picked to be rich in strong results.
Exercise: state measured hERG current change (%, negative = inhibition) at 10uM for each of the compounds provided.

// fetch human ether-à-go-go-related gene (hERG) potassium channel (human) hERG current change (%, negative = inhibition) at 10uM for "CCOC(=O)c1cnc2ccc(OC)cc2c1NCc1ccccc1"
-65.8%

Please provide the recorded hERG current change (%, negative = inhibition) at 10uM for "CCOC(=O)c1oc2cccc(O)c2c1C" , tested on human ether-à-go-go-related gene (hERG) potassium channel (human).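 Further: peak tail current of the secondary pulse compared with the same well before compound.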
-7.22%

Query for human ether-à-go-go-related gene (hERG) potassium channel (human): what hERG current change (%, negative = inhibition) at 10uM does the record show for CCC1(C)Cc2c(sc3nnn(CC(=O)Nc4cccc5ccccc45)c(=O)c23)CO1 (stereo not drawn) ?
3.09%

Tell me reported hERG current change (%, negative = inhibition) at 10uM for "Nc1ccn([C@H]2CS[C@@H](CO)O2)c(=O)n1" , tested with human ether-à-go-go-related gene (hERG) potassium channel (human).
18%

Item O=C(CN1C(=O)NC2(CCCc3ccccc32)C1=O)N1CCN(C(=O)c2ccco2)CC1 (stereo not drawn) with human ether-à-go-go-related gene (hERG) potassium channel (human) - hERG current change (%, negative = inhibition) at 10uM?
-34.3%

For the record "CCN(CC)S(=O)(=O)c1ccc(C(=O)OCCNC(=O)c2cccnc2)cc1" , what value of hERG current change (%, negative = inhibition) at 10uM is listed for human ether-à-go-go-related gene (hERG) potassium channel (human)?
-2.68%

Missing value: hERG current change (%, negative = inhibition) at 10uM, human ether-à-go-go-related gene (hERG) potassium channel (human), entry "O=C(CC(c1ccccc1)c1ccccc1)NCCOCc1ccccc1" . Fill in?
-12.6%

Give the reported hERG current change (%, negative = inhibition) at 10uM for "CC1(C)CC(=O)c2c(O)c(-c3ccccc3)c(=O)n(-c3ccccc3)c2C1" (system: human ether-à-go-go-related gene (hERG) potassium channel (human)).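 Further: peak tail current of the secondary pulse compared with the same well before compound.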
-6.83%

What hERG current change (%, negative = inhibition) at 10uM appears in the records for this compound with human ether-à-go-go-related gene (hERG) potassium channel (human)? CCC1(C)Cc2c(sc3nnn(CC(=O)Nc4ccccc4C)c(=O)c23)CO1 (stereo not drawn)
-58.4%

Notebook entry, human ether-à-go-go-related gene (hERG) potassium channel (human) assay: hERG current change (%, negative = inhibition) at 10uM of "CCOC(=O)c1cnc2ccc(OCC)cc2c1N(C)Cc1ccccc1" = ?
-11.9%

Quick check: hERG current change (%, negative = inhibition) at 10uM on human ether-à-go-go-related gene (hERG) potassium channel (human), item "Cc1c(NC(=O)c2ccc(Cl)nc2)cccc1-c1nc2cccnc2s1" ?
-48.1%

# returns recorded hERG current change (%, negative = inhibition) at 10uM (system: human ether-à-go-go-related gene (hERG) potassium channel (human)) for "CN(C(=O)COC(=O)c1cn(C)c2ccccc12)C1CCCCC1"
6.55%

Return hERG current change (%, negative = inhibition) at 10uM measured with human ether-à-go-go-related gene (hERG) potassium channel (human) given this compound: "CCOC(=O)C1(CCOc2ccccc2)CCN(Cc2cc(OC)cc(OC)c2)CC1"
-79.8%

// fetch human ether-à-go-go-related gene (hERG) potassium channel (human) hERG current change (%, negative = inhibition) at 10uM for "Cc1cc(C)c2c(N)c(S(=O)(=O)Cc3ccccc3)sc2n1"
-33.3%

Missing value: hERG current change (%, negative = inhibition) at 10uM, human ether-à-go-go-related gene (hERG) potassium channel (human), entry "Cc1ccccc1NC(=O)Cn1nnc2sc3c(c2c1=O)CC(C)(C)OC3" . Fill in?
-35.2%

Give the reported hERG current change (%, negative = inhibition) at 10uM for "CSc1ccc(CN2CCN(C(=O)COc3ccc(C)cc3)CC2)cc1.O=C(O)C(=O)O" (system: human ether-à-go-go-related gene (hERG) potassium channel (human)).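 Further: peak tail current of the secondary pulse compared with the same well before compound.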
-60.4%

Under human ether-à-go-go-related gene (hERG) potassium channel (human): hERG current change (%, negative = inhibition) at 10uM value of "Nc1nc(-c2ccccc2)nc2sc3c(c12)CCCC3" ?
11.7%

Any idea what hERG current change (%, negative = inhibition) at 10uM came out for "COc1ccccc1N1CCN(C(=O)COc2cc(C)cc(C)c2)CC1" on human ether-à-go-go-related gene (hERG) potassium channel (human)?
10.8%

Identify the measured hERG current change (%, negative = inhibition) at 10uM of "Cc1ccc(-n2nc(C)c(NS(=O)(=O)c3ccccc3)c2C)cc1C" for human ether-à-go-go-related gene (hERG) potassium channel (human).
-16.9%

Observed hERG current change (%, negative = inhibition) at 10uM on human ether-à-go-go-related gene (hERG) potassium channel (human) for "Cc1ccc(S(=O)(=O)CC(=O)Nc2cccc(C)n2)cc1" , please.
6.48%

Value wanted: hERG current change (%, negative = inhibition) at 10uM (human ether-à-go-go-related gene (hERG) potassium channel (human)) of entry "COc1cc(CNc2nnnn2C)ccc1OCc1c(F)cccc1Cl"
0.756%

====

Would you mind telling me the reported hERG current change (%, negative = inhibition) at 10uM of each entry?
- targetEntity: human ether-à-go-go-related gene (hERG) potassium channel (human, UniProt Q12809);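 further: peak tail current of the secondary pulse compared with the same well before compound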
- Sequence (Q12809 whole entry, looked up): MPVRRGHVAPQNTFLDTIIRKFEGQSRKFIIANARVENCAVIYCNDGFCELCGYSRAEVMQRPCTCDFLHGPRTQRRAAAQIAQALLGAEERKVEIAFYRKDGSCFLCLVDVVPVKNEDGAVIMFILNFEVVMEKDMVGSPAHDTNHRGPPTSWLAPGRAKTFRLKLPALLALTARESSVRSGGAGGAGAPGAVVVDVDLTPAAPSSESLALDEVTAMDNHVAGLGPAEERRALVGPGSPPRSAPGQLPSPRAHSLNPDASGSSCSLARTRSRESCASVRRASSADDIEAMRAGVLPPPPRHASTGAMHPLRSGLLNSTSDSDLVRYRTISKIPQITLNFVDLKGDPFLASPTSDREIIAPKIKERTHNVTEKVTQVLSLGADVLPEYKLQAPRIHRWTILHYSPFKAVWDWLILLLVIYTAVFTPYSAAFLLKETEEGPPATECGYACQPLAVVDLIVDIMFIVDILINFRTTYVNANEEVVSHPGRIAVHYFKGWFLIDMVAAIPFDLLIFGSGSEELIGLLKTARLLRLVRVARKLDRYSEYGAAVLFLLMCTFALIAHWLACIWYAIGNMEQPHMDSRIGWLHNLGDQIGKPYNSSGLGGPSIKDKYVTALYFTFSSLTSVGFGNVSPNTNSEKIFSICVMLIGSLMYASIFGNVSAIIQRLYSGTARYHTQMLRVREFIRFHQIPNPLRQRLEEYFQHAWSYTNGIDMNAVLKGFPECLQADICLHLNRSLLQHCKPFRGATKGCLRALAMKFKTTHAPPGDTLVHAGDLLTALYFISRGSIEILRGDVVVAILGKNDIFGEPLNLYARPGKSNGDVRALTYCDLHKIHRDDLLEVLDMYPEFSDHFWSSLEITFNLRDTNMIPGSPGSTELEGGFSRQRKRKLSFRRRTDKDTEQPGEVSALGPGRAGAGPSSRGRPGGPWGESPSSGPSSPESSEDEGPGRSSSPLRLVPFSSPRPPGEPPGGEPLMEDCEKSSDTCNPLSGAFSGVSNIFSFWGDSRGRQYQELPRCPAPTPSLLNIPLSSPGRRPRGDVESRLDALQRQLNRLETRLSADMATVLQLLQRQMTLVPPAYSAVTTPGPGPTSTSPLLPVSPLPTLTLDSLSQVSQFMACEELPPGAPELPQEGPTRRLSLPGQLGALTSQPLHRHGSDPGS
- experimentalProtocol: primary screen, population patch clamp on CHO cells stably expressing hERG; higher = less effect of the substance
- Experimental: Briefly, Chinese hamster ovary (CHO) cells stably expressing the hERG channel were dislodged from tissue culture flasks and dispensed into PPC plates. […] During the recording, background leak currents were estimated by a 100 ms step to -80 mV from an initial holding potential of -70 mV and subtracted from the subsequent current measurement. The campaign was conducted in two phases using slight differences in recording protocol. […]
The whole screen tested about 310,000 compounds, of which about 14,000 (4.5%) showed an effect of 50% or more. Effects have a minus sign here. The sample as a whole holds a higher share of strong results than the screen did.
Give your result in % as a bare value.

Please report the recorded hERG current change (%, negative = inhibition) at 10uM for "CN1C[C@@H]2C[C@@H](c3cccn3-c3ccccn3)N3CCC[C@@]23C1=O" .
-43.6

Report hERG current change (%, negative = inhibition) at 10uM for "Cc1[nH]nc2c1C1(CCC3(CC1)OCCO3)C(C#N)=C(N)O2" please.
-0.214

Can you share its hERG current change (%, negative = inhibition) at 10uM? I mean this compound: CCOC(=O)C1=C(C)NC(SC)=C(C#N)C1CC(C)C (stereo not drawn)
-12.3

Any idea what hERG current change (%, negative = inhibition) at 10uM was measured for "COc1cc(NC(=O)c2cccc(C)c2)c(OC)cc1NC(=O)CN1CCOCC1" ?
-3.88

For Cc1cccc(N2CCN(S(=O)(=O)c3ccc4c(c3)CCC(=O)N4)CC2C)c1 (stereo not drawn) , what is its reported hERG current change (%, negative = inhibition) at 10uM?
-8.91

Look up hERG current change (%, negative = inhibition) at 10uM for this compound: "Cc1cccc(NS(=O)(=O)c2cccc(C(=O)N3CCN(c4ccccn4)CC3)c2)c1"
-22.7

Item under review: O=C(O)C12C3CCCC1C32c1ccccc1 (stereo not drawn) . Reported hERG current change (%, negative = inhibition) at 10uM?
21.7

Entry under review: "CN1C[C@@H]2C[C@@H](c3cccn3-c3nccs3)N3CCC[C@@]23C1=O" . Reported hERG current change (%, negative = inhibition) at 10uM?
-19.2

Entry "Cn1c(=O)n(C)c2cc(S(=O)(=O)Nc3ccc(F)cc3)ccc21" : reported hERG current change (%, negative = inhibition) at 10uM = ?
20.9

Which hERG current change (%, negative = inhibition) at 10uM is reported for this compound? "O=C1N(C2CCCC2)C[C@@H]2C[C@@H](c3cccn3-c3ccccn3)N3CCC[C@@]123"
-62.6

Need hERG current change (%, negative = inhibition) at 10uM, item "NC(=O)C1CCN(CC(=O)NC(=O)NC2CCCC2)CC1"
9.34

May I ask what hERG current change (%, negative = inhibition) at 10uM has been recorded for "CSc1nc(N(C)C)c2ccccc2n1" ?
-19

Tell me the measured hERG current change (%, negative = inhibition) at 10uM of "O=C1N(C2CCCC2)C[C@@H]2C[C@@H](c3cccn3-c3nccs3)N3CCC[C@@]123" , please.
-66.6

What hERG current change (%, negative = inhibition) at 10uM value was documented for this compound, "Cn1c(=O)c2c(SCC(=O)NCc3ccco3)nc(-c3ccccc3Cl)nc2n(C)c1=O" ?
-1.4

Sample O=C(O)c1cc(O)ccc1NC(=O)C1CCCO1 (stereo not drawn) — what was its hERG current change (%, negative = inhibition) at 10uM?
-0.924

Name the recorded hERG current change (%, negative = inhibition) at 10uM for "C=CCN(c1ccccc1)S(=O)(=O)c1cccc(C(=O)Nc2ncccc2O)c1" .
8.35

Please look up its hERG current change (%, negative = inhibition) at 10uM: "N=c1n(-c2ccccc2)c(O)cc(=O)n1-c1ccccc1"
-6.28

Endpoint output: hERG current change (%, negative = inhibition) at 10uM of "C/C(=N\O)C(=O)NCCN1CCCCC1" . Value?
-10.2

hERG current change (%, negative = inhibition) at 10uM lookup needed for "CCCn1nc2cc(C(=O)NCc3ccc(C)cc3)ccc2c1OCC" , thanks.
-1.4

Which measured hERG current change (%, negative = inhibition) at 10uM value corresponds to "CCCN1CCC(=NNC(=O)c2ccc(Br)o2)CC1" ?
-7.22

May I ask what hERG current change (%, negative = inhibition) at 10uM has been recorded for Cc1ccc2c(CC(=O)OC3CCOC3=O)coc2c1 (stereo not drawn) ?
3.85
